assay: 14-day oral gavage toxicokinetic study in rats; format: in vivo; conditions: male, rat, plasma, po, 30 mg/kg, Individual Compound 1 Plasma Concentration, rats, daily oral 30 mg/kg, Day 1, Male, 24 h
reported-property: concentration at 24 h (ng/mL)
Please reply with the bare figure in ng/mL and do not write the unit itself.

Query block: Item under review: CN1CCN(c2ccc(Nc3ncc4cc5n(c4n3)C3(CCCCC3)CNC5=O)nc2)CC1 . Reported concentration at 24 h?
Result block: 280

====

assay: 14-day oral gavage toxicokinetic study in rats; format: in vivo; settings: male, rat, plasma, po, 5 mg/kg, oral 5 mg/kg, Study Day 1, Male
reported-property: Cmax (ng/mL)
Respond numerically; units are ng/mL and should not be typed.

Query block: // returns reported Cmax for input CN1CCN(c2ccc(Nc3ncc4cc5n(c4n3)C3(CCCCC3)CNC5=O)nc2)CC1
Result block: 408

Data provenance: patent US20160220569A1
